- assay_info: Half life in dog liver microsomes
- Assay type: ADME, Canis lupus familiaris
parameter_measured: half-life (min)

Cc1cc2ccc1[C@@H](C)COC(=O)Nc1ccc(OC(F)(F)F)c(c1)CN(C)C(=O)[C@@H]2Nc1ccc2c(N)nccc2c1
140

1 = Cc1cc2ccc1[C@@H](C)COC(=O)Nc1ccc(S(=O)(=O)C3CC3)c(c1)CN(C)C(=O)[C@@H]2Nc1ccc2c(N)nccc2c1
2 = Cc1cc2ccc1[C@@H](C)COC(=O)Nc1ccc(S(=O)(=O)C3CC3)c(c1)CN(C)C(=O)[C@@H]2Nc1ccc2c(N)ncc(F)c2c1
3 = Cc1cc2ccc1[C@@H](C)COC(=O)Nc1ccc(S(=O)(=O)C3CC3)c(c1)CN(C)C(=O)[C@@H]2Nc1cc2ccnc(N)c2cc1F
4 = Cc1cc2ccc1[C@@H](C)COC(=O)Nc1ccc(S(=O)(=O)C3CC3)c(c1)CN(C)C(=O)[C@@H]2Nc1cc(F)c2c(N)nccc2c1
*Q* Sort ascending by half-life. Answer format: the labels, in the requested order.
*A* 3, 2, 4, 1
(3: 7 min, 2: 26 min, 4: 39 min, 1: 110 min)
